Record form. Attribute: pEC50. Fill in for each entry.
tested on: Human immunodeficiency virus 1; assay: Antiviral activity against NNRTI-resistant HIV-1 harboring L100I mutant infected in human MT4 cells assessed as protection against virus-induced cytopathic effect incubated for 5 days by MTT assay; assay type: functional, organism-based; conditions: Human immunodeficiency virus 1, MT4, 120 h
pEC50 is defined as minus the log10 of a concentration measured in mol/L.

Qu. Entry "Cc1cc(C#N)cc(C)c1Oc1nc(Nc2ccc(C#N)cc2)nc2c1CN(Cc1ccc(C(N)=O)cc1)CC2" has what pEC50?
Ans. 7.17

Qu. Give its pEC50 value. Item: "Cc1cc(C#N)cc(C)c1Oc1nc(Nc2ccc(C#N)cc2)nc2c1CN(Cc1ccc(S(N)(=O)=O)cc1)CC2"
Ans. 7.14

Qu. // returns reported pEC50 for input "Cc1cc(C#N)cc(C)c1Oc1nc(Nc2ccc(C#N)cc2)nc2c1CN(Cc1ccc(S(C)(=O)=O)cc1)CC2"
Ans. 6.80

Qu. Which pEC50 is reported for this compound? "Cc1cc(C#N)cc(C)c1Oc1nc(Nc2ccc(C#N)cc2)nc2c1CN(C(=O)c1ccc([N+](=O)[O-])cc1)CC2"
Ans. 6.92

Qu. What does the data say about its pEC50? Entry: "Cc1ccc(C(=O)N2CCc3nc(Nc4ccc(C#N)cc4)nc(Oc4c(C)cc(C#N)cc4C)c3C2)cc1"
Ans. 7.02
